Bliss excess values for the compounds below.
- Test system: CaR-1 (Colorectal Carcinoma);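 further: after 72 h of two-drug dosing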
- EXPERIMENT_SUMMARY: Bliss excess, mean over the matrix (fraction); higher = more synergy
Enter the number alone.

COMPOUND	Bliss excess
Cc1c2c(nn1C)CSCc1cc(n(C)n1)CSc1cc(c3ccccc3c1)OCCCc1c(C(=O)O)n(C)c3c-2c(Cl)ccc13 [AZD5991] + Cc1cc2ncnn2cc1Nc1ncc2c(n1)n(C1CCOCC1)c(=O)n2C [AZD7648] (first compound max 1 µM, 7x7, partner max 10 µM)	-0.0365
Cc1nc(Nc2ncc(C(=O)Nc3c(C)cccc3Cl)s2)cc(N2CCN(CCO)CC2)n1 [Dasatinib] + CC(=O)Nc1cccc(-n2c(=O)n(C3CC3)c(=O)c3c(Nc4ccc(I)cc4F)n(C)c(=O)c(C)c32)c1 [Trametinib] (first compound max 2 µM, 7x7, partner max 1 µM)	-0.0711
NC1(C(=O)N[C@@H](CCO)c2ccc(Cl)cc2)CCN(c2ncnc3[nH]ccc23)CC1 [Capivasertib] + CC(=O)c1c(C)c2cnc(Nc3ccc(N4CCNCC4)cn3)nc2n(C2CCCC2)c1=O [Palbociclib] (first compound max 10 µM, 7x7, partner max 10 µM)	0.0034

As a next step, examine the compound that follows.
(Q) Which measured Bliss excess value corresponds to COc1cccc(OCCCN)c1-c1cc(Nc2cnc(C#N)cn2)n[nH]1 [Prexasertib] + CCc1c2c(nc3ccc(O)cc13)-c1cc3c(c(=O)n1C2)COC(=O)[C@]3(O)CC [SN-38] (first compound max 1 µM, 7x7, partner max 0.3 µM) ?
(A) -0.053

====

Reported values of combination Emax for individual entries
- System: B-CPAP (Thyroid Gland Carcinoma)
- EXPERIMENT_SUMMARY: combination Emax (second highest fraction inhibited in the dose matrix, 72 h); higher = more inhibition; extreme values may be limits of the assay
Returns: the value as a bare number; no unit string appended.

COMPOUND	combination Emax
CS(=O)(=O)CCNCc1ccc(-c2ccc3ncnc(Nc4ccc(OCc5cccc(F)c5)c(Cl)c4)c3c2)o1 [Lapatinib] + C[C@@H](Oc1cc(-c2cnn(C3CCNCC3)c2)cnc1N)c1c(Cl)ccc(F)c1Cl [Crizotinib] (first compound max 10 µM, 7x7, partner max 10 µM)	0.984

Attention now turns to another entry.
(Q) Could you share which combination Emax value was measured for COc1cccc(OCCCN)c1-c1cc(Nc2cnc(C#N)cn2)n[nH]1 [Prexasertib] + CCc1c2c(nc3ccc(O)cc13)-c1cc3c(c(=O)n1C2)COC(=O)[C@]3(O)CC [SN-38] (first compound max 1 µM, 7x7, partner max 0.3 µM) ?
(A) 0.968

====

combination Emax values for the compounds below.
- System: Calu-3 (Lung Adenocarcinoma)
- EXPERIMENT_SUMMARY: combination Emax (second highest fraction inhibited in the dose matrix, 72 h); higher = more inhibition; extreme values may be limits of the assay
Lab note: write the figure by itself, no unit.

(Q) State the recorded combination Emax for this entry: Cc1cc2ncnn2cc1Nc1ncc2c(n1)n(C1CCOCC1)c(=O)n2C [AZD7648] + CCN(CCO)CCCOc1ccc2c(Nc3cc(CC(=O)Nc4cccc(F)c4)[nH]n3)ncnc2c1 [AZD2811] (first compound max 10 µM, 7x7, partner max 1 µM)
(A) 0.235

(Q) CCN(CCO)CCCOc1ccc2c(Nc3cc(CC(=O)Nc4cccc(F)c4)[nH]n3)ncnc2c1 [AZD2811] + C=CCn1c(=O)c2cnc(Nc3ccc(N4CCN(C)CC4)cc3)nc2n1-c1cccc(C(C)(C)O)n1 [AZD1775] (first compound max 1 µM, partner max 1 µM) , same question.
(A) 0.0931

(Q) Here is the next compound: CCc1c2c(nc3ccc(O)cc13)-c1cc3c(c(=O)n1C2)COC(=O)[C@]3(O)CC [SN-38] + CN(C)CCCOc1ccc(-c2ccc3ncc4c(c3c2)n(C2CCOCC2)c(=O)n4C)cn1 [AZD0156] (first compound max 0.3 µM, 7x7, partner max 1 µM)
(A) 0.319

(Q) Lookup CC1(C)CCC(CN2CCN(c3ccc(C(=O)NS(=O)(=O)c4ccc(NCC5CCOCC5)c([N+](=O)[O-])c4)c(Oc4cnc5[nH]ccc5c4)c3)CC2)=C(c2ccc(Cl)cc2)C1 [Venetoclax] + CS(=O)(=O)CCNCc1ccc(-c2ccc3ncnc(Nc4ccc(OCc5cccc(F)c5)c(Cl)c4)c3c2)o1 [Lapatinib] (first compound max 1 µM, 7x7, partner max 10 µM)
(A) 0.74

====

- Test system: DoTc2-4510 (Cervical Carcinoma)
- EXPERIMENT_SUMMARY: combination Emax (second highest fraction inhibited in the dose matrix, 72 h); higher = more inhibition; extreme values may be limits of the assay
// combination Emax lookup, one value per entry
The answer should be a number; do not append a unit.

MOLECULE	combination Emax
CC(=O)Nc1cccc(-n2c(=O)n(C3CC3)c(=O)c3c(Nc4ccc(I)cc4F)n(C)c(=O)c(C)c32)c1 [Trametinib] + Cc1nc(-c2cn3c(n2)-c2ccc(-c4cnn(C(C)(C)C(N)=O)c4)cc2OCC3)n(C(C)C)n1 [Taselisib] (first compound max 1 µM, 7x7, partner max 10 µM)	0.841
CC(=O)c1c(C)c2cnc(Nc3ccc(N4CCNCC4)cn3)nc2n(C2CCCC2)c1=O [Palbociclib] + CC1(C)CCC(CN2CCN(c3ccc(C(=O)NS(=O)(=O)c4ccc(NCC5CCOCC5)c([N+](=O)[O-])c4)c(Oc4cnc5[nH]ccc5c4)c3)CC2)=C(c2ccc(Cl)cc2)C1 [Venetoclax] (first compound max 10 µM, 7x7, partner max 1 µM)	0.0297

Now turn to the next molecule.
(Q) Field request: combination Emax | item: CS(=O)(=O)CCNCc1ccc(-c2ccc3ncnc(Nc4ccc(OCc5cccc(F)c5)c(Cl)c4)c3c2)o1 [Lapatinib] + NC1(c2ccc(-c3nc4ccn5c(=O)[nH]nc5c4cc3-c3ccccc3)cc2)CCC1 [MK-2206] (first compound max 10 µM, 7x7, partner max 10 µM)
(A) 0.888

====

- Test system: HT-1376 (Bladder Carcinoma)
- EXPERIMENT_SUMMARY: combination Emax (second highest fraction inhibited in the dose matrix, 72 h); higher = more inhibition; extreme values may be limits of the assay
VALUE_KIND: combination Emax
Form field (numeric): enter value without unit.

// worked examples, combination Emax included
COMPOUND	TARGET_SYSTEM	combination Emax
CN(CCO)CC[C@H](CSc1ccccc1)Nc1ccc(S(=O)(=O)NC(=O)c2ccc(N3CCC([C@@H](O)c4ccccc4-c4ccc(Cl)cc4)CC3)cc2)cc1S(=O)(=O)C(F)(F)F [AZD4320] + CS(=O)(=O)CCNCc1ccc(-c2ccc3ncnc(Nc4ccc(OCc5cccc(F)c5)c(Cl)c4)c3c2)o1 [Lapatinib] (first compound max 1 µM, 7x7, partner max 10 µM)	HT-1376 (Bladder Carcinoma)	0.508
CN(CCO)CC[C@H](CSc1ccccc1)Nc1ccc(S(=O)(=O)NC(=O)c2ccc(N3CCC([C@@H](O)c4ccccc4-c4ccc(Cl)cc4)CC3)cc2)cc1S(=O)(=O)C(F)(F)F [AZD4320] + Cn1cnc2c(F)c(Nc3ccc(Br)cc3Cl)c(C(=O)NOCCO)cc21 [Selumetinib] (first compound max 1 µM, 7x7, partner max 3 µM)	HT-1376 (Bladder Carcinoma)	0.687
CN(CCO)CC[C@H](CSc1ccccc1)Nc1ccc(S(=O)(=O)NC(=O)c2ccc(N3CCC([C@@H](O)c4ccccc4-c4ccc(Cl)cc4)CC3)cc2)cc1S(=O)(=O)C(F)(F)F [AZD4320] + CCN(CCO)CCCOc1ccc2c(Nc3cc(CC(=O)Nc4cccc(F)c4)[nH]n3)ncnc2c1 [AZD2811] (first compound max 1 µM, 7x7, partner max 1 µM)	HT-1376 (Bladder Carcinoma)	0.784

Now look at this one.
(Q) Would you kindly share the measured combination Emax for COc1nnc2ccc(N3CCC(c4ccc(OCCN5CCN(C)C(=O)[C@H]5C)cc4)CC3)nn12 [AZD5153] + CCN(CCO)CCCOc1ccc2c(Nc3cc(CC(=O)Nc4cccc(F)c4)[nH]n3)ncnc2c1 [AZD2811] (first compound max 1 µM, 7x7, partner max 1 µM) ?
(A) 0.256

====

- Test system: TE-15 (Esophageal Squamous Cell Carcinoma)
- EXPERIMENT_SUMMARY: combination Emax (second highest fraction inhibited in the dose matrix, 72 h); higher = more inhibition; extreme values may be limits of the assay
Catalogue of combination Emax values

Below, each entry is followed by its recorded combination Emax result.
MOLECULE	combination Emax
Cc1cc2ncnn2cc1Nc1ncc2c(n1)n(C1CCOCC1)c(=O)n2C [AZD7648] + CN(C)CCCOc1ccc(-c2ccc3ncc4c(c3c2)n(C2CCOCC2)c(=O)n4C)cn1 [AZD0156] (first compound max 10 µM, 7x7, partner max 1 µM)	0.236
CN(CCO)CC[C@H](CSc1ccccc1)Nc1ccc(S(=O)(=O)NC(=O)c2ccc(N3CCC([C@@H](O)c4ccccc4-c4ccc(Cl)cc4)CC3)cc2)cc1S(=O)(=O)C(F)(F)F [AZD4320] + C[C@@H](Nc1cc(F)cc(F)c1)c1cc(C(=O)N(C)C)cc2c(=O)cc(N3CCOCC3)oc12 [AZD8186] (first compound max 1 µM, 7x7, partner max 3 µM)	0.551

Query molecule follows.
(Q) May I ask what combination Emax has been recorded for NC1(C(=O)N[C@@H](CCO)c2ccc(Cl)cc2)CCN(c2ncnc3[nH]ccc23)CC1 [Capivasertib] + CC(C)n1c(=O)n(C)c2cnc3cc(F)c(-c4ccc(OCCCN5CCCCC5)nc4)cc3c21 [AZD1390] (first compound max 10 µM, 7x7, partner max 0.3 µM) ?
(A) 0.387
